These measurements were taken from patent US20250059205A1.

- measurementTarget: GDP-bound KRAS protein (aa 1-169), containing both G12D and C118A amino acid substitutions (Homo sapiens, UniProt P01116, C118A/G12D)
- Sequence (P01116 1-169 isoform P01116-2 G12D/C118A): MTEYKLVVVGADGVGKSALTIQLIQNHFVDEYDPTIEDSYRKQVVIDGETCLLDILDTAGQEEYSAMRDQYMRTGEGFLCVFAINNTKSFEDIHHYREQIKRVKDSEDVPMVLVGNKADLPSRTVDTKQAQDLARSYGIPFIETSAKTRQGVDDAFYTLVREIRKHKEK
- assayExplanation: KRAS G12D Coupled Nucleotide Exchange Assay
- Type: biochemical
- conditionInfo: read-out: Avg 2 h Coupled Exchange IC50; 2 h compound pre-incubation
measuredEndpoint: IC50 (nM)
Reply with just the number (in nM).

# IC50 of CCc1c(F)ccc2cc(O)cc(-c3cc(C)c4c(N5C[C@H]6CC[C@@H](C5)N6)nc(OC[C@@]56CCCN5C[C@H](F)C6)nc4c3F)c12 [Example 230] = 1

---

- measurementTarget: GDP-bound KRAS protein (aa 1-169), containing both G12D and C118A amino acid substitutions (Homo sapiens, UniProt P01116, C118A/G12D)
- assayExplanation: KRAS G12D Coupled Nucleotide Exchange Assay
- Format: biochemical
- conditionInfo: 2 h compound pre-incubation
Catalogue of Avg 2 h Coupled Exchange IC50 readings, one per entry.
Reply with just the number (in nM).

Here is how some compounds turned out for Avg 2 h Coupled Exchange IC50.
| compound | assayResult |
| --- | --- |
| Cc1c(Cl)cc2[nH]ncc2c1-c1ccc2c(N3[C@@H]4CC[C@H]3CNC4)nc(OC[C@@]34CCCN3C[C@H](F)C4)nc2c1 | 42 |
| CCc1c(F)ccc2cc(O)cc(-c3ccc4c(N5C[C@H]6CC[C@@H](C5)N6)nc(O[C@@H](C)C(C)(C)O)nc4c3F)c12 | 21 |
| Nc1ccc(C2CC2)c(-c2c(F)cc3c(N4C[C@H]5CC[C@@H](C4)N5)nc(OC[C@@]45CCCN4C[C@H](F)C5)nc3c2F)c1 | 4 |
| CCc1c(F)ccc2cc(O)cc(-c3ccc4c(N5C[C@H]6CC[C@@H](C5)N6)nc(OC[C@@]56CCCN5C[C@H](F)C6)nc4c3F)c12 | 10 |
| Oc1cc(-c2c(F)cc3c(N4C[C@@H]5CC[C@H]4CN5)nc(OCC45CCCN4C[C@H](F)C5)nc3c2F)c2c(F)c(F)ccc2c1 (atropisomer, axis not shown; (M)) | 1 |

# Avg 2 h Coupled Exchange IC50 of `Oc1cc(-c2cc3nc(OC[C@@]45CCCN4C[C@H](F)C5)nc(N4C[C@H]5CC[C@@H](C4)N5)c3cc2F)c2ccccc2c1` = 3

# Avg 2 h Coupled Exchange IC50 of `Oc1cc(-c2c(F)cc3c(N4C[C@@H]5C[C@H]4CN5)nc(OC[C@@]45CCCN4C[C@H](F)C5)nc3c2F)c2ccccc2c1` = 9

# Avg 2 h Coupled Exchange IC50 of `Oc1cc(-c2cc3nc(OC[C@@]45CCCN4C[C@H](F)C5)nc(N4C[C@@H]5CC[C@H]4CN5)c3cc2F)c2c(F)c(F)ccc2c1` = 3

# Avg 2 h Coupled Exchange IC50 of `CCc1cccc2cc(O)cc(-c3ccc4c(N5C[C@H]6CC[C@@H](C5)N6)nc(OC[C@@]56CCCN5C[C@H](F)C6)nc4c3F)c12` = 5

# Avg 2 h Coupled Exchange IC50 of `Oc1cc(-c2cc3nc(OC[C@@]45CCCN4C[C@H](F)C5)nc(N4C[C@H]5CC[C@@H](C4)N5)c3cc2F)c2c(Cl)cccc2c1` = 1

# Avg 2 h Coupled Exchange IC50 of `Oc1cc(Cl)c(C2CC2)c(-c2ccc3c(N4C[C@H]5CC[C@@H](C4)N5)nc(OC[C@@]45CCCN4C[C@H](F)C5)nc3c2F)c1` = 3

# Avg 2 h Coupled Exchange IC50 of `CCc1c(F)ccc2cc(O)cc(-c3c(F)cc4c(N5C[C@H]6CC[C@@H](C5)N6)nc(OCc5nccn5C)nc4c3F)c12` = 6

# Avg 2 h Coupled Exchange IC50 of `Oc1cc(-c2ccc3c(N4C[C@H]5CC[C@@H](C4)N5)nc(OC[C@@]45CCCN4C[C@H](F)C5)nc3c2)c2c(F)c(F)ccc2c1` = 2

# Avg 2 h Coupled Exchange IC50 of `Cc1cc2[nH]ncc2c(-c2c(F)cc3c(N4C[C@H]5CC[C@@H](C4)N5)nc(OC[C@@]45CCCN4C[C@H](F)C5)nc3c2F)c1Cl` = 3

# Avg 2 h Coupled Exchange IC50 of `CN1C[C@H](F)C[C@H]1COc1nc(N2[C@@H]3CC[C@H]2CNC3)c2cc(F)c(-c3cc(O)cc4ccccc34)c(F)c2n1` = 17

# Avg 2 h Coupled Exchange IC50 of `Oc1cc(-c2c(F)cc3c(N4[C@@H]5CC[C@H]4CNC5)nc(OC[C@@]45CCCN4C[C@H](F)C5)nc3c2F)c2c(F)c(F)ccc2c1` = 2

# Avg 2 h Coupled Exchange IC50 of `CCc1c(F)ccc2cc(O)cc(-c3ccc4c(N5C[C@@H]6CC[C@H]5CN6)nc(OC[C@@]56CCCN5C[C@H](F)C6)nc4c3F)c12` = 4

# Avg 2 h Coupled Exchange IC50 of `Fc1c(-c2c(C3CC3)ccc3[nH]ncc23)ccc2c(N3C[C@H]4CC[C@@H](C3)N4)nc(OC[C@@]34CCCN3C[C@H](F)C4)nc12` = 10
